- Test system: 377384-186-R-J1-PDC complex spheroid viability;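 further: spheroids exposed to compounds for seven days before readout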
- procedure_text: Anticancer human tumor 377384-186-R-J1-PDC patient-derived pancreatic carcinoma cell line growth inhibition [RAS]
- measurement_setup: second compound 0.0949 µM; first compound 0.01 µM; stronger effect = lower value
test_readout: viability, T/C (%)
Report only the number, with the unit % understood.

# compound, measurement_unit, viability, T/C
records = [
    ("C=CC(=O)Nc1cc(Nc2nccc(-c3cn(C)c4ccccc34)n2)c(OC)cc1N(C)CCN(C)C + CCn1c(-c2cccnc2C(C)OC)c2c3cc(ccc31)N1CCOC(CC(NC(=O)C(C(C)C)N(C)C(=O)C3(F)CCN(C(=O)C#CC(C)(C)N(C)C)CC3)C(=O)N3CCCC(N3)C(=O)OCC(C)(C)C2)C1", "%", 90.2),
    ("C=CC(=O)N1CCN(c2nc(OCC3CCCN3C)nc3c(F)c(-c4nc(N)cc(C)c4C(F)(F)F)c(Cl)cc23)C(C)C1 (centres undefined) + CCn1c(-c2cc(N3CCN(C)CC3)cnc2C(C)OC)c2c3cc(ccc31)-c1csc(n1)CC(NC(=O)C1CC1C)C(=O)N1CCCC(N1)C(=O)OCC(C)(C)C2", "%", 2.29),
    ("Nc1ccn(C2OC(CO)C(O)C2(F)F)c(=O)n1 (centres undefined) + CCn1c(-c2cccnc2C(C)OC)c2c3cc(ccc31)N1CCOC(CC(NC(=O)C(C(C)C)N(C)C(=O)C3(F)CCN(C(=O)C#CC(C)(C)N(C)C)CC3)C(=O)N3CCCC(N3)C(=O)OCC(C)(C)C2)C1", "%", 47.8),
]

// switching to the query compound
Using known records, supply viability, T/C for C=CC(=O)N1CCN(c2nc(OCC3CCCN3C)nc3c(F)c(-c4nc(N)cc(C)c4C(F)(F)F)c(Cl)cc23)C(C)C1 (centres undefined) + CCn1c(-c2cccnc2C(C)OC)c2c3cc(ccc31)N1CCOC(CC(NC(=O)C(C(C)C)N(C)C(=O)C3(F)CCN(C(=O)C#CC(C)(C)N(C)C)CC3)C(=O)N3CCCC(N3)C(=O)OCC(C)(C)C2)C1 91.3

The measurements presented in this section are drawn from PubChem BioAssay AID2060903.
